Exercise: for every item that follows, state its recorded inhibition at 10 µM.
Biological target: PI3Kδ (Homo sapiens, UniProt O00329)
Construct: purchased Millipore 14-604
Sequence (O00329 whole entry): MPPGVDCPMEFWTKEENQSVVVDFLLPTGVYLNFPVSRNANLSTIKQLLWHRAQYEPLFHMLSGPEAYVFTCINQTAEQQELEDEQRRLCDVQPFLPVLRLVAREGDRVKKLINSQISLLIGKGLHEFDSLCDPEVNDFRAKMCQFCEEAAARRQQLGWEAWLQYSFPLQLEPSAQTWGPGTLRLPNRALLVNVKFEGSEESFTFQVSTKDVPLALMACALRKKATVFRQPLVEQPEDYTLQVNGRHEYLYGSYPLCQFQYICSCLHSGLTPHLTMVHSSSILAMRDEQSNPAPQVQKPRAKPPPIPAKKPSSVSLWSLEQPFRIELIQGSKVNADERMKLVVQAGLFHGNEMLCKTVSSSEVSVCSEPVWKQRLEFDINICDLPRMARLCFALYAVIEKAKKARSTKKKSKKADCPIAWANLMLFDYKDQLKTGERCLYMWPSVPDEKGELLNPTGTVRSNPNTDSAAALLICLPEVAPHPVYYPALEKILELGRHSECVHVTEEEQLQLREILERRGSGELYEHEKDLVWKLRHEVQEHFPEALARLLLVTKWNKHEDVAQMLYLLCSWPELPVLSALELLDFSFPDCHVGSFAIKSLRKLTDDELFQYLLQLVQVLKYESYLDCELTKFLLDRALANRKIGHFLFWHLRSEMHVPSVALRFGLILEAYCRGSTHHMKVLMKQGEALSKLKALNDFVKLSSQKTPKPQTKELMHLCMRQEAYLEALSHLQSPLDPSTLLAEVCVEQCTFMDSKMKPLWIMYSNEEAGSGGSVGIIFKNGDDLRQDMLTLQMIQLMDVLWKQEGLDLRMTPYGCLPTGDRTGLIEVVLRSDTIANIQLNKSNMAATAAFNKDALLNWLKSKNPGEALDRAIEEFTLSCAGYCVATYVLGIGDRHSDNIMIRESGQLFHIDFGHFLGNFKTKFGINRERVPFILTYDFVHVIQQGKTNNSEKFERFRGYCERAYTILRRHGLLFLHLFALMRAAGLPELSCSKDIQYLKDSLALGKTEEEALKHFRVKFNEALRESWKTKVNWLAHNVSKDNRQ
Sequence (P27986 whole entry partner): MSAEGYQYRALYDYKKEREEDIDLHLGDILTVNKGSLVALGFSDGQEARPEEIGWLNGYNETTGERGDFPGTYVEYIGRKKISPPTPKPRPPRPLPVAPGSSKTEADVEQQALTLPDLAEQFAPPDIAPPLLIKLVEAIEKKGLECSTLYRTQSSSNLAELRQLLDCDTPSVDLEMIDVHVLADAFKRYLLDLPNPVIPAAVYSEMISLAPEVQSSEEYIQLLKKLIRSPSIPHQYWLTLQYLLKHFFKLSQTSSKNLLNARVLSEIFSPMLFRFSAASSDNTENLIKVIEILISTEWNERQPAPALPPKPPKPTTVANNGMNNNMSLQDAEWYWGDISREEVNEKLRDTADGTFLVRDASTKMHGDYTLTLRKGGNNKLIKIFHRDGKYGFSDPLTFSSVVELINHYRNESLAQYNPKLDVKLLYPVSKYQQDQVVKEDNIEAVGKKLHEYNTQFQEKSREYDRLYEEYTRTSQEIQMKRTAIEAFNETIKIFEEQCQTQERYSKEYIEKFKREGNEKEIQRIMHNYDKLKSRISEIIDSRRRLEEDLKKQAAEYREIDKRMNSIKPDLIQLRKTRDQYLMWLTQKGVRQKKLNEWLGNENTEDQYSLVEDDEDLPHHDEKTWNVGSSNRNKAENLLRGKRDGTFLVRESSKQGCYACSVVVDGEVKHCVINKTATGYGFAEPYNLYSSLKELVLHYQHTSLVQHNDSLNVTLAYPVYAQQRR
Experiment: Inhibitory activity to PI3K δ, PI 3-Kinase (human) HTRF Assay kit
Assay type: biochemical
Conditions: 10 μM (Table 7); read-out: Inhibition rate % to PI3Kδ
One number for each entry, in %.

c1cc(-c2ccc3c(c2)OCO3)c2cc(Nc3nc(NC4CC4)c4nc[nH]c4n3)ccc2n1 [MED1007-85]
113
COC[C@H]1OC(=O)c2coc3c2[C@@]1(C)C1=C(C3=O)[C@@H]2CCC(=O)[C@@]2(C)C[C@H]1OC(C)=O [Wortmannin, reference compound]
108
CSc1ccccc1-c1ccnc2ccc(Nc3nc(NC4CC4)c4nc[nH]c4n3)cc12 [MED1007-87]
80
Fc1cccc(-c2ccnc3ccc(Nc4nc(NC5CC5)c5nc[nH]c5n4)cc23)c1 [MED1007-64]
88.7
CC(C)Oc1nc(Nc2ccc3nccc(N4CCNCC4)c3c2)nc2[nH]cnc12 [MED1007-58]
35
COc1ccc(-c2ccnc3ccc(Nc4nc(NC5CC5)c5nc[nH]c5n4)cc23)cc1OC [MED1007-84]
101

# return inhibition at 10 µM for each item in the list
1. c1ccc(-c2ccnc3ccc(Nc4nc(NC5CCCC5)c5nc[nH]c5n4)cc23)cc1 [MED1007-106]
2. COC(=O)c1ccc(-c2ccnc3ccc(Nc4nc(NC5CC5)c5nc[nH]c5n4)cc23)cc1 [MED1007-59]

**Result**
[89.1, 59]

----------
Molecular target: PI3Kδ (Homo sapiens)
Construct: purchased Millipore 14-604
Test: Inhibitory activity to PI3K δ, PI 3-Kinase (human) HTRF Assay kit
Assay type: biochemical
Settings: 10 μM (Table 8); read-out: Inhibition rate % to PI3K delta
Reported property: inhibition at 10 µM (%)
Answers are plain numbers, in %.

Reference set (7 entries):
CC(C)Oc1nc(Nc2ccc3nccc(-c4ccccc4)c3c2)nc2[nH]cnc12
89
CC(C)Oc1nc(Nc2ccc3nccc(-c4ccc(F)cc4)c3c2)nc2[nH]cnc12
80.5
COc1ccc(-c2ccnc3ccc(Nc4nc(OC(C)C)c5nc[nH]c5n4)cc23)cc1OC
99.1
Oc1nc(Nc2ccc3nccc(-c4ccc5c(c4)OCO5)c3c2)nc2[nH]cnc12
20.1
COc1ccc(-c2ccnc3ccc(Nc4nc(O)c5nc[nH]c5n4)cc23)cc1
55
CC(C)Oc1nc(Nc2ccc3nccc(-c4ccc5c(c4)OCO5)c3c2)nc2[nH]cnc12
83.4
Cc1ccnc2ccc(Nc3nc(NC4CC4)c4nc[nH]c4n3)cc12 [MED1007-113, dihydrate di-methanesulfonate]
68.9

**Query** Recorded inhibition at 10 µM of c1cc(C2CC2)c2cc(Nc3nc(NC4CC4)c4nc[nH]c4n3)ccc2n1 [MED1007-115, dihydrate di-methanesulfonate] , please.
**Result** 94.6

----------
Molecular target: PI3Kδ (Homo sapiens)
Construct: purchased Millipore 14-604
Assay: Inhibitory activity to PI3K δ, PI 3-Kinase (human) HTRF Assay kit
Type: biochemical
Conditions: 10 μM (Table 7); read-out: Inhibition rate % to PI3Kδ
Reported property: inhibition at 10 µM

Before answering, review these 3 worked examples.
c1ccc(Oc2nc(Nc3ccc4nccc(N5CCNCC5)c4c3)nc3[nH]cnc23)cc1 [MED1007-54]
42.4%
COc1ccccc1-c1ccnc2ccc(Nc3nc(NC4CC4)c4nc[nH]c4n3)cc12 [MED1007-86]
66.4%
NCCNc1nc(Nc2ccc3nccc(-c4ccccc4)c3c2)nc2[nH]cnc12 [MED1007-70]
51.6%

# context switch: different compound, same inhibition at 10 µM
**Query** Which inhibition at 10 µM is listed for OCCNc1nc(Nc2ccc3nccc(-c4ccccc4)c3c2)nc2[nH]cnc12 [MED1007-69] ?
**Result** 36.4%
